Origin of values: PubChem BioAssay AID1416

Parameter inhibition: see the listing below.
TGT: Eukaryotic translation initiation factor 2-alpha kinase 3 (Homo sapiens)
ASSAY_NAME: block of dimerizer-induced PERK translation repression, primary screen, PERK inhibitor project, CHO PERK-DD cells, SEAP luminescence, HTS (AID 1416);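 note: PERK kinase domain activated by AP20187 dimerizer at 100 nM; 0% = DMSO with dimerizer and 100% = rapamycin at 8.4 µM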
CONDITIONS_USED: CHO PERK-DD fusion, SEAP luminescence translation reporter; at 5.6 µM; stronger effect = higher value
Out of some 220,000 compounds screened, about 370 (0.17%) were called active. For the sample, actives were picked, then their nearest neighbours and some compounds at random.

COMPOUND	inhibition (%)
CC(NS(=O)(=O)c1ccccc1)c1n[nH]c(=S)n1-c1ccccc1 (stereo not given)	3.52
O=C1C(Cc2ccc(O)cc2)NC(=S)N1Cc1ccccc1 (stereo not given)	3.13
O=C(Nc1ccc2c(c1)C(=O)OC2)Nc1cccc2ccccc12	1.57
Cc1ccccc1C(=O)Nc1ccc(N2CCCCCC2)cc1	-0.25
COc1ccc(CN2CCCC(CNC(=O)c3ccc(F)cc3)C2)cc1OC (stereo not given)	0.78
CC(C)CNC(=O)C(=O)Nc1ccc(N(C)C)cc1	0.89
CC(C)N1CCC(=NNc2ccc([N+](=O)[O-])cc2S(=O)(=O)N2CCOCC2)CC1	1
Cc1nn(CC2CC2)c(=O)n1N(C)c1ncc(C(F)(F)F)cc1Cl	1.31
CCOC(=O)c1ccc(NC(=O)c2cc(=O)[nH]c3ccccc23)cc1	0.84
Cc1ccc(C2Nc3ccccc3C(=O)N2CCN2CCNC2=O)cc1 (stereo not given)	0.32
COc1ccc(-n2c(C)nn(CC3CC3)c2=O)cc1	0.52
Cc1nn(Cc2ccccc2Cl)c(C)c1NC(=O)Cn1nc([N+](=O)[O-])c(Cl)c1C	-0.58
O=c1c2sccc2nc(SCc2cc(=O)n3ccccc3n2)n1-c1ccc(Br)cc1	-1.2
COc1ccc(-n2c(C)nc3c(cnn3-c3ccccc3)c2=O)cc1	-0.16
N#Cc1c(NCCO)ccc([N+](=O)[O-])c1NCCO	3.54
Cc1ccc(N2C(=O)C(Cc3ccccc3)NC2=S)cc1 (stereo not given)	-0.27
CCCCC(CC(C)O)c1n[nH]c(=S)n1-c1ccccc1 (stereo not given)	0.58
Cc1ccc(NNC(=O)C2CCC2)cc1C	0.43
CCOC(=O)C1=C(C)N=C2c3ccccc3C(=O)C2C1c1ccc(Br)cc1 (stereo not given)	0.04
Cc1ccc2cc(C)c(N3CCC(C)CC3)nc2c1	1.08
CCN(CC)CC1(O)CCN(C(=O)c2ccc(Cl)c(Cl)c2)CC1	1.07
Cc1cc(/C=N/NC(=O)CC2(C)OCCO2)c(C)n1-c1ccc(Cl)c(Cl)c1	-0.35
O=C(COC(=O)c1cnc(Cl)c(Cl)c1)NCc1ccco1	-0.25
O=C(Nc1cccnc1)c1cc([N+](=O)[O-])ccc1Cl	1.12
CSc1sc(C(=O)NC(=O)NCc2cccnc2)c(C)c1-c1ccon1	-0.78
COc1c(N2CCN(C(=S)Nc3ccccc3F)C(C)C2)c(F)cc2c(=O)c(C(=O)O)cn(C3CC3)c12 (stereo not given)	1.87
CC(CO)(CO)NC(=O)c1ccc(=O)[nH]n1	1.5
CN(Cc1ccccn1)Cc1nc(-c2ccc(Cl)cc2)no1	0.32
O=C(NNC(=O)C1CCN(c2ncccn2)CC1)c1ccccc1	1.78
CCCn1nnnc1NC(=O)COc1ccc(Cl)cc1C	-0.15
Cc1cccc(C)c1NC(=S)N(Cc1cccnc1)Cc1ccccc1Cl	-0.05
CC(=O)NCc1ccc(S(=O)(=O)NC2CCN(Cc3ccccc3)CC2)cc1	1.04
CC(=O)N1CCN(S(=O)(=O)c2ccc(C)c([N+](=O)[O-])c2)C1C(C)C (stereo not given)	0.34
CCCCn1nc(C(=O)Nc2ccc(S(=O)(=O)Nc3ncccn3)cc2)c2ccccc2c1=O	0.72
O=C1C=CC(=O)N1c1ccc(N2CCCCC2)cc1	3.21
S=c1[nH]nc(COc2ccccc2)n1-c1ccccc1	0.99
COc1ccc([N+](=O)[O-])cc1N(CC(O)Cn1nnc2ccccc21)S(=O)(=O)c1ccc(C)cc1 (stereo not given)	-0.77
CCn1cc(CN2CCCC(CNS(=O)(=O)Cc3ccccc3)C2)cn1 (stereo not given)	1.56
OCCN1CCN(C(=S)c2ccc(-c3ccccc3)cc2)CC1	0.18
CN(C)/C=C(/C(=O)c1ccc(Cl)c(Cl)c1)c1nnnn1-c1ccccc1	1.85
COc1ccc(Oc2c(Cl)cnn(-c3ccccc3)c2=O)cc1	0.39
O=C1c2ccccc2C(=O)c2c1cccc2N1CCN(CCO)CC1	-0.7
Cc1c(Cl)c([N+](=O)[O-])nn1CC(=O)NCC1CCCO1 (stereo not given)	0.38
O=C(NCCc1ccc(F)cc1)c1n[nH]c2ccccc12	0.75
COc1cc(C(=O)N2CCN(C/C=C/c3ccccc3)CC2)cc(OC)c1C	-0.57
